tested on: rice; assay: Phytotoxicity test for field crops (soil treatment test); assay type: in vivo; design: key: 0 (no harm); 9 (complete withered); details: 50 g ai/ha; Rice (20 days after treatment)
measured attribute: Soil treatment phytotoxicity, Rice

molecule	measured attribute	experimental result
CN(Cc1nnn(C)n1)c1nc(C(F)(F)F)ccc1C(=O)Nc1nnnn1C [Compound No. 2-26]	Soil treatment phytotoxicity, Rice	9
Cn1nnc(COCc2nc(C(F)(F)F)ccc2C(=O)N(c2nnnn2C)S(C)(=O)=O)n1 [Compound No. 2-69]	Soil treatment phytotoxicity, Rice	8
Cn1nnc(COCc2nc(C(F)(F)F)ccc2C(=O)Nc2nnnn2C)n1 [Compound No. 2-59]	Soil treatment phytotoxicity, Rice	8
Cn1nnc(COCc2nc(C(F)F)ccc2C(=O)Nc2nnnn2C)n1 [Compound No. 2-84]	Soil treatment phytotoxicity, Rice	3
Cn1nnc(COCc2nc(C(F)(F)Cl)ccc2C(=O)Nc2nnnn2C)n1 [Compound No. 2-78]	Soil treatment phytotoxicity, Rice	6
CON(Cc1nnn(C)n1)c1nc(C(F)(F)F)ccc1C(=O)Nc1nnnn1C [Compound No. 2-30]	Soil treatment phytotoxicity, Rice	9
Cn1nnnc1NC(=O)c1ccc(C(F)(F)F)nc1OCc1nnnn1C(F)F [Compound No. 1-26]	Soil treatment phytotoxicity, Rice	8
Cn1nnnc1COCc1nc(C(F)(F)F)ccc1C(=O)Nc1nnnn1C [Compound No. 1-61]	Soil treatment phytotoxicity, Rice	1
